# targetOrSystem: vesicular monoamine transporter-VMAT (Homo sapiens, UniProt Q05940)
# Sequence (Q05940 whole entry): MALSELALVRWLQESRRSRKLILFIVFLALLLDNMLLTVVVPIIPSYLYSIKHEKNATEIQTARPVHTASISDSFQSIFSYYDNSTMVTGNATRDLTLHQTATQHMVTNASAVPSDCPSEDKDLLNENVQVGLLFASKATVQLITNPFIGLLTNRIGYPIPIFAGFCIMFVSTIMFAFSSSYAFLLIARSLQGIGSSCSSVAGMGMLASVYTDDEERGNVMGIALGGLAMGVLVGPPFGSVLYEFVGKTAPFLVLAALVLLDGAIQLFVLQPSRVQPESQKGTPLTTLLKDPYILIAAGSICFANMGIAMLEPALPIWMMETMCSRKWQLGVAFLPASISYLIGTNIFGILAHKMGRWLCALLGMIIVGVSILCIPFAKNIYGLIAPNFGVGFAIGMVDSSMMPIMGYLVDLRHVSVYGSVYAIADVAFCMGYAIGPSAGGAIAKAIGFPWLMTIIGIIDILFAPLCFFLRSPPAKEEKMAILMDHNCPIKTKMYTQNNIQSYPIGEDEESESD
valueType: IC50

Given the compound CN[C@@H](C)Cc1ccccc1 , what is its reported IC50?
~4 µM

The reported numbers originate from patent US20230372302A1.
